Target: recombinant human NF-kappaB-inducing kinase (NIK/MAP3K14) (Homo sapiens (Human))
Sequence (Q99558 whole entry): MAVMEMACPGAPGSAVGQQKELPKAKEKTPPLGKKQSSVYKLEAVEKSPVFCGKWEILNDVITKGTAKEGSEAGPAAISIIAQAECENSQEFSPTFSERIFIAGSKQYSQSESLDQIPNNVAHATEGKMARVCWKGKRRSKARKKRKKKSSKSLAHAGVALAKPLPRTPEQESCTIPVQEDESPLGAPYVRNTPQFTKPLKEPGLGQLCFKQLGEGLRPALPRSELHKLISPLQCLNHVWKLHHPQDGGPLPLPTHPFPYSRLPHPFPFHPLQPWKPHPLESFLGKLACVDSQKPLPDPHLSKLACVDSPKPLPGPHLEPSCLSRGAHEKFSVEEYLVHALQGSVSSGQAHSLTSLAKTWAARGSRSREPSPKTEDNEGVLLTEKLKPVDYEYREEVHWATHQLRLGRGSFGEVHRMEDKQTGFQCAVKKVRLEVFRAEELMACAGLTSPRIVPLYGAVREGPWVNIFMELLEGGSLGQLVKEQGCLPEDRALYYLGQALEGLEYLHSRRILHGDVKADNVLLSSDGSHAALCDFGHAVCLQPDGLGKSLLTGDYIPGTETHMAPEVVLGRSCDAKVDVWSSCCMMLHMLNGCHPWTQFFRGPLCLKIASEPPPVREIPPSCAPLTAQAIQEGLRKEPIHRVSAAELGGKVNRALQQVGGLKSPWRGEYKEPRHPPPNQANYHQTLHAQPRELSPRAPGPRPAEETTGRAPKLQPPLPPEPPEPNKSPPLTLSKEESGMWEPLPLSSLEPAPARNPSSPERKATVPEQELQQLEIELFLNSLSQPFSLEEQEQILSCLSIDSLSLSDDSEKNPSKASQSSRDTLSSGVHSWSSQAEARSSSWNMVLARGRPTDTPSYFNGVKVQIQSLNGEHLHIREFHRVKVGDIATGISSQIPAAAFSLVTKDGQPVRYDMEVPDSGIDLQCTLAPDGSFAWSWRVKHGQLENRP
Experiment: Inhibition of auto-phosphorylation of recombinant human NIK/MAP3K14 activity (AlphaScreen)
Type: biochemical
Settings: averaged values over all measurements on all batches
measured attribute: IC50 (nM)

>>> endpoint_result("CN(C(=O)Cn1nc(Cl)cc1Nc1nccc(-c2cc(C#N)c3c(c2)[C@@](C)(CO)CN3)n1)C1CC1")
4

A: COCCn1nc(C2CCOCC2)cc1Nc1nccc(-c2cc(C#N)c3c(c2)[C@@](C)(CO)CN3)n1
B: CC(C)n1nc(C2CCOCC2)cc1Nc1cc(-c2cc(C#N)c3c(c2)[C@@](C)(CO)CN3)ncn1
Lab note: check whether A or B shows the higher recorded IC50. Respond with the label that goes with your answer.
A
(A: 13 nM, B: 5.5 nM)

A: CC(C)n1ccc(Nc2nccc(-c3cc(C#N)c4c(c3)C(C)(CO)CN4)n2)n1 (stereo not drawn)
B: C[C@]1(CO)CNc2c(C#N)cc(-c3ccnc(Nc4cc(Cl)nn4C[C@H]4COCCO4)n3)cc21
Endpoint returns whichever of A and B has the numerically higher IC50. Mark your selection by writing its label.
B

a: CC(C)Oc1c(Nc2nccc(-c3cc(C#N)c4c(c3)[C@@](C)(CO)CN4)n2)cnn1C
b: C[C@]1(CO)CNc2c(C#N)cc(-c3ccnc(Nc4cc(Cl)nn4CC4CCN(CC(F)(F)F)CC4)n3)cc21
Of the two listed items, which has the higher IC50? First: a Second: b Select an item and report its label.
b
(b: 17 nM, a: 3.1 nM)

a: Cn1nc(C2CCCCC2)cc1Nc1nccc(-c2cc(C#N)c3c(c2)C(C)(CO)CN3)n1 (stereo not drawn)
b: COCCc1c(Nc2nccc(-c3cc(C#N)c4c(c3)[C@@](C)(CO)CN4)n2)cnn1CC(F)F
c: Cc1cc(Nc2nccc(-c3cc(C#N)c4c(c3)[C@@](C)(CO)CN4)n2)nn1CCN1CCOCC1
Order these by IC50, descending, and give the full ranking. Your answer should be the labels, listed in the requested order.
a, b, c
(a: 7.6 nM, b: 3.3 nM, c: 1.7 nM)

---

Molecular target: recombinant human NF-kappaB-inducing kinase (NIK/MAP3K14) (Homo sapiens (Human))
Assay: Inhibition of auto-phosphorylation of recombinant human NIK/MAP3K14 activity (AlphaScreen)
Assay type: biochemical
Conditions: averaged values over all measurements on all batches
measured attribute: IC50 (nM)

Worked examples follow.
>>> endpoint_result("COCCCn1nc(Cl)cc1Nc1nccc(-c2cc(C#N)c3c(c2)[C@@](C)(CO)CN3)n1 [Compound 112]")
2.9
>>> endpoint_result("Cc1cc(Nc2nccc(-c3cc(C#N)c4c(c3)[C@@](C)(CO)CN4)n2)n(CCCO)n1 [Compound 92]")
3.5

I: C[C@]1(CO)CNc2c(C#N)cc(-c3ccnc(Nc4cc(Cl)nn4C[C@@H]4CCCO4)n3)cc21 [Compound 113]
II: Cc1cc(Nc2nccc(-c3cc(C#N)c4c(c3)[C@@](C)(CO)CN4)n2)n(C2CCOCC2)n1 [Compound 63]
III: Cn1nc(Nc2nccc(-c3cc(C#N)c4c(c3)C(C)(CO)CN4)n2)cc1C(=O)NC1CCOCC1 (stereo not drawn) [Compound 50]
Let's sort these by IC50, smallest first. Go ahead? Reply with the labels, ordered as the question asks.
III, I, II
(III: 3.8 nM, I: 6.2 nM, II: 9.8 nM)
